Ref: patent US20210061908A1

Answer each item with its documented relative fluorescent units (RFU), ELISA.
# SYSTEM_NAME: T1, extracellular domain (ECD) of human IGSF11 (VSIG3), biotinylated (human, UniProt Q5DX21 23-241, biotinylated (site not stated))
# T1 construct: also called human IGSF11 protein
# T1 sequence: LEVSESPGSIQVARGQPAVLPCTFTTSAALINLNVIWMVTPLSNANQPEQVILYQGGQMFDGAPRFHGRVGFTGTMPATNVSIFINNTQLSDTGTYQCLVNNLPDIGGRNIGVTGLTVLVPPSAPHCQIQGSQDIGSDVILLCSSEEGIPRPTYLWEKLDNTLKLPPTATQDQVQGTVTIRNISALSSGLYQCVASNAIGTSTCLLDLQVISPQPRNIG
# PROCEDURE_DETAILS: ELISA, scFv; RFU grade (*** >1.0, ** 0.5-1.0, * 0.1-0.5)

{"BINDER": "A-004 (scFv format) (scFv, V domains shown, scFv) VH: EVQLVESGGGLVKPGGSLRLSCAASGFTFSSYSMNWVRQAPGKGLEWVSSISSSSSYIYYADSVKGRFTISRDNAKNSLYLQMNSLRAEDTAVYYCARGQLLWFGESALIDAFDIWGQGTMVTVSS VL: EIVLTQSPSSLSASVGDRVTITCRASQSISSYLNWYQLKPGKAPKLLIYAASILQSGVPSRFSGSGSGTDFTLTISSLQPEDFAAYYCQQSYSTPRTFGQGTKLEIK", "RECORDED_METRIC": "relative fluorescent units (RFU), ELISA", "VALUE_OBSERVED": "0.5 to 1 rfu"}
{"BINDER": "A-001 (scFv format) (scFv, V domains shown, scFv) VH: EVQLVESGGGLVKPGGSLRLSCAASGFTFSSYSMNWVRQAPGKGLEWVSSISSSSSYIYYADSVKGRFTISRDNAKNSLYLQMNSLRAEDTAVYYCVRSIIVQALGITSVFDIWGQGTMVTVSS VL: AIRLTQSPSSLSASVGDRVTISCRASQIISNHLNWYQQKPGKAPKLLIYAASRLQTGVPSRFSGSGSETDYTLTISSLQPEDFATYYCQQSYSNPRTFGHGTKVEIK", "RECORDED_METRIC": "relative fluorescent units (RFU), ELISA", "VALUE_OBSERVED": "> 1 rfu"}

Okay, now this binder:
GET /values?readout=relative fluorescent units (RFU), ELISA&item= A-034 (scFv format) (scFv, V domains shown, scFv) VH: QMQLVQSGGGLVKPGGSLRLSCAASGFTFSSYTMNWVRQAPGKGLEWVSSISSIGTYIYYADSVKGRFTISRDNAKNSLYLQMNSLRAEDTAVYYCARVLLSGSYYGYFDSWGQGTLVTVSS VL: QSVLTQPPSVSGAPGQRVTISCTGSSSNIGAGYDVHWYQQLPGTAPKLFIYGNSNRPSGVPDRFSGSKSGTSASLAITGLQAEDEADYYCQSYDSSLSGYVFGTGTKVTVL
> 1 rfu
